Provide the reported EC50 [µM], FXa generation assay of each item.
- TEST SYSTEM: human Factor IXa (human, UniProt P00740 47-191; P00740 227-461)
- ASSAY SUMMARY: cell-based or functional assay
Square brackets hold non-standard residues; d marks the D form. Ends that are not written are not given here. NMeL = CN[C@@H](CC(C)C)C(=O)O

Examples with answers:
{"BINDER": "K[dK][NMeL]TCLASYCWLF (not fully specified; printed as K-k-MeLeu-TCLASYCWLF; cysteine pairing not given here) [K-k-MeLeu-TCLASYCWLF]", "EC50 [µM], FXa generation assay": "> 1 µM"}
{"BINDER": "WRAGLDESQRDRAPGKLTCLASYCWLFWTGIA [WRAGLDESQR DRAPG KLTCLASYCWLFWTGIA]", "EC50 [µM], FXa generation assay": "< 0.5 µM"}

Moving on to the next binder.
Ask | Reported EC50 [µM], FXa generation assay for SKQGRPISSD[dR]RASGKSTCLASYCWLFWTGIA (not fully specified; printed as SKQGRPISSDrRASGKSTCLASYCWLFWTGIA; cysteine pairing not given here) [SKQGRPISSDrRASGKSTCLASYCWLFWTGIA] : what is it?
Reply | < 0.5 µM
